# measurement_description: Probe fluorescence ratio response to arachidonic acid relative to ADIFAB2
# Assay type: binding
# settings: arachidonic acid; response relative to ADIFAB2
Sorting guide: entries reporting DR/DR AA beneath 0.5 go in the 1 pile, the rest go in the -1 pile.

Example cases with answers are listed next.
{"molecule": "36Y, 72A (protein, listed as Rattus norvegicus, PEPTIDE (1)...(131) wild-type rat intestinal fatty acid binding protein) AFDGTWKVDRNENYEKFMEKMGINVVKRKLGAHDNYKLTITQEGNKFTVKESSNFRNIDVVFELGVDFAYSAADGTELTGTWTMEGNKLVGKFKRVDNGKELIAVREISGNELIQTYTYEGVEAKRIFKKE", "qualitative_label": -1}
{"molecule": "73W 74T (protein, listed as Rattus norvegicus, PEPTIDE (1)...(131) wild-type rat intestinal fatty acid binding protein) AFDGTWKVDRNENYEKFMEKMGINVVKRKLGAHDNLKLTITQEGNKFTVKESSNFRNIDVVFELGVDFAYSLWTGTELTGTWTMEGNKLVGKFKRVDNGKELIAVREISGNELIQTYTYEGVEAKRIFKKE", "qualitative_label": -1}
{"molecule": "74E 72A 73F (protein, listed as Rattus norvegicus, PEPTIDE (1)...(131) wild-type rat intestinal fatty acid binding protein) AFDGTWKVDRNENYEKFMEKMGINVVKRKLGAHDNLKLTITQEGNKFTVKESSNFRNIDVVFELGVDFAYSAFEGTELTGTWTMEGNKLVGKFKRVDNGKELIAVREISGNELIQTYTYEGVEAKRIFKKE", "qualitative_label": -1}
{"molecule": "31I1, 72A (protein, listed as Rattus norvegicus, PEPTIDE (1)...(131) wild-type rat intestinal fatty acid binding protein) AFDGTWKVDRNENYEKFMEKMGINVVKRKLIAHDNLKLTITQEGNKFTVKESSNFRNIDVVFELGVDFAYSAADGTELTGTWTMEGNKLVGKFKRVDNGKELIAVREISGNELIQTYTYEGVEAKRIFKKE", "qualitative_label": 1}
{"molecule": "14A, 72A (protein, listed as Rattus norvegicus, PEPTIDE (1)...(131) wild-type rat intestinal fatty acid binding protein) AFDGTWKVDRNENAEKFMEKMGINVVKRKLGAHDNLKLTITQEGNKFTVKESSNFRNIDVVFELGVDFAYSAADGTELTGTWTMEGNKLVGKFKRVDNGKELIAVREISGNELIQTYTYEGVEAKRIFKKE", "qualitative_label": -1}

Now consider the entry below.
Determine whether this molecule shows DR/DR AA lower than 0.5 (ties excluded): 102S, 72A (protein, listed as Rattus norvegicus, PEPTIDE (1)...(131) wild-type rat intestinal fatty acid binding protein) AFDGTWKVDRNENYEKFMEKMGINVVKRKLGAHDNLKLTITQEGNKFTVKESSNFRNIDVVFELGVDFAYSAADGTELTGTWTMEGNKLVGKFKRVDNGKESIAVREISGNELIQTYTYEGVEAKRIFKKE
1
